Every entry's value here was drawn from patent US12398154B2.

target: KRas G12D (Homo sapiens, UniProt P01116, G12D); experiment: biochemical;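 further: TR-FRET displacement binding assay on KRas, read after a one-hour incubation at room temperature, IC50 fitted from percent-of-control values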
Sequence (P01116 1-169 isoform P01116-2 G12D): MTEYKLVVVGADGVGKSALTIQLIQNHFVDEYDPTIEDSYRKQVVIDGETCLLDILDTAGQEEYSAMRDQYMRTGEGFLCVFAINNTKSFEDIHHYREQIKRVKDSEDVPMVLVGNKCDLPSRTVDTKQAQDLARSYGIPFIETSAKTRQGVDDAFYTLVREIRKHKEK
The compounds listed here are annotated with their IC50.
All answers are understood in nM, so give the number only.

Record excerpt, results attached:
{"columns": ["compound", "target-entity", "value-units", "IC50"],
 "data": [
  ["Cc1cc2n(n1)CCCN(c1nc(OCC34CCCN3CCC4)nc3c(F)c(-c4cccc5cccc(F)c45)ncc13)C2 [Example 254]", "KRas G12D (Homo sapiens, UniProt P01116, G12D)", "nM", 2840],
  ["CCc1cccc2cc3[nH]ncc3c(-c3ncc4c(N5CCC[C@@](C)(O)C5)nc(OC[C@@]56CCCN5C[C@H](F)C6)nc4c3F)c12 [Example 473]", "KRas G12D (Homo sapiens, UniProt P01116, G12D)", "nM", 11],
  ["NC(=O)C1COCCN(c2nc(OCC34CCCN3CCC4)nc3c(F)c(-c4cccc5cccc(F)c45)ncc23)C1 (stereo not shown) [Example 270]", "KRas G12D (Homo sapiens, UniProt P01116, G12D)", "nM", 2630],
  ["Cc1cc2[nH]ncc2c(-c2ncc3c(N4CCCC5(CC(=O)N5)C4)nc(OCC45CCCN4CCC5)nc3c2F)c1C (stereo not shown) [Example 523]", "KRas G12D (Homo sapiens, UniProt P01116, G12D)", "nM", 166]
]}

Below: the item to evaluate.
Quick one: IC50 for O=C1NC(=O)C2(CCCN(c3nc(OCC45CCCN4CCC5)nc4c(F)c(-c5cccc6cccc(CF)c56)ncc34)C2)N1 (stereo not shown) [Example 462] ? 880
